- Tested on: UACC-62
- protocol details: NCI tumour cell line growth inhibition, 48 h
Activity calls are given as the source filed them. No stated cut-off is given here; in the data, active = GI50 up to about 1.1 µM and inactive = higher.
For each entry below, report its GI50 value.

| compound | reading |
| --- | --- |
| CN(CCO)CCCC1COc2ccccc2O1 (stereo unspecified) | > 100 µM (inactive) |
| Nc1ncnc2c1sc(=S)n2-c1ccccc1 | > 100 µM (inactive) |
| CCCCc1ccc(C#CC#Cc2ccc(CCCC)s2)s1 | > 100 µM (inactive) |

Answer for every listed entry: what is its GI50? The entries follow.
1. Cc1ccc2c(c1)C(=O)/C(=C\c1ccccc1)CCS2(=O)=O
2. CCCOc1ccc(/C(Cl)=C(\C=O)c2ccc(OC)c(OC)c2)cc1OCCC
3. CCc1n[nH]c(=O)n1N1C(=O)C2CCCCC2C1=O (stereo unspecified)

["11.9 µM (inactive)", "3.52 µM (inactive)", "> 100 µM (inactive)"]

###

- System: HOP-62
- protocol details: NCI tumour cell line growth inhibition, 48 h
The source made the active and inactive calls. No stated cut-off is given here; in the data, active = GI50 up to about 1.1 µM and inactive = higher.
I'd be grateful if you could share measured GI50 for these entries.

Answered cases to consult:
| compound | readout | reading |
| --- | --- | --- |
| COC(=O)C(C)(C)OCc1ccc(C2NC(=O)N(c3cccc(Cl)c3)C(=O)N2c2cccc(Cl)c2)cc1 (stereo not given) | GI50 | 99.8 µM (inactive) |
| COc1ccccc1NC(=S)Nc1cc(C)cc(C)n1 | GI50 | > 63 µM (inactive) |

Go through the items and report each one's GI50.
1. Oc1ccc2c3c1OC1C(=NN=C4CCC5(O)C6Cc7ccc(O)c8c7C5(CCN6CC5CC5)C4O8)CCC4(O)C(C2)N(CC2CC2)CCC314 (stereo not given)
2. Clc1ccc2nc3[nH]nc(Cl)c3nc2c1
3. COC(=O)/C(=N/NC(C)(C)C)C(C(=O)C=C(C)C)C(=O)C(=O)Nc1ccc(Cl)cc1C (stereo not given)

1. 30.3 µM (inactive)
2. 53.5 µM (inactive)
3. > 100 µM (inactive)

###

- Tested on: OVCAR-8
- protocol details: NCI tumour cell line growth inhibition, 48 h
Activity calls are given as the source filed them. Cut-off read from the data, not from the text of the source: active = GI50 up to about 1.1 µM and inactive = higher.
Give your call using only these classes: active, inactive

// known answers, use as guide
| compound | assigned class |
| --- | --- |
| CCO/C=C/C(C)C1(C(=O)OCC)CCCCC1=O (centres undefined) | inactive |
| N#Cc1ccc(-c2nc(C#N)c(N)o2)cc1 | inactive |

Hi, sorry to bother you, what did the test record for "CC(C)(C)OC(=O)n1c(Cl)c(C=O)c2ccccc21" ?
inactive

For CC(C)=CCC/C(C)=C/CCC1(C)C=Cc2c(c3ccccc3oc2=O)O1 (centres undefined) , what call appears in the results of this test?
inactive

Tell me the assay call for Cc1cn(C2CC(O)C(CO)C2C)c(=O)[nH]c1=O (centres undefined) please.
inactive

Test call, this compound: Cc1c(F)c(N)c2c(=O)cc(-c3ccc(N)c(F)c3)oc2c1F [AMINOFLAVONE]
inactive

Record request — test call for O=C1NC(c2ccc(O)cc2)C2CCC1C2 (centres undefined)
inactive

What is the recorded call for this compound in the test? CC(=O)OC1(C)CC(C)C(=O)C(C(O)CC2CC(=O)NC(=O)C2)C1 (centres undefined)
active

Each compound tested received a call. Report the one for OC1[C@H](O)CN(OCc2ccccc2)C[C@@H]1O (some centres undefined) .
inactive

For Oc1nc2cc(Cl)ccc2nc1/C(=N\Nc1ccccc1)C(O)c1ccc(Cl)c(Cl)c1 (centres undefined) , what call appears in the results of this test?
inactive

Any idea what this test logged for CCC(c1ccccc1)c1cc(C(C)(C)C)cc(C(C)(C)C)c1O (centres undefined) ?
inactive

Dear all, I need the recorded test outcome for "O=C(NN1CCCCC1)c1cc2cc(CCl)ccc2oc1=O" , thank you.
inactive

Call for entry "CC1=CCC(C)=Nc2nc3ccccc3n21" :
inactive

# outcome recorded in this test, key = "CN(C)CCn1c(=O)c2ccc(NCCNCCO)c3c(=O)c4cc(O)ccc4n(c1=O)c23"
inactive

Kindly provide the recorded test outcome for the following compound: "Nc1ccc(Sc2nnc(N)s2)cc1"
inactive

Could you check what this test reported for COc1cccc2c1cc([N+](=O)[O-])c1c(C(=O)O)cc3c(c12)OCO3 [ARISTOLOCHIC ACID] ?
inactive

Please share the test call associated with "Cc1cc(C)n(-c2c(O)ccc(O)c2-n2nc(C)cc2C)n1" .
inactive

How was "COc1cc(/C=N/N=C2NCCCCN2)ccc1O" classified in this test?
inactive

Short answer needed: outcome of this test for "CN1CCCc2nc3ccccc3n2C1" ?
inactive

Dear colleague, could you share the recorded outcome for "Cc1ccc(NC(=O)COc2ccc(Cl)cc2)cc1Cl" when you have a moment?
inactive
